Hey, just so you know, these numbers are from the supplement of paper PMC6089552.

What cell viability (log2) was measured for each of the following?
tested on: A673/TR/shEF; experiment: cell viability (LOESS-normalised, relative to median of negative controls) (log2 ratio); higher = more viable cells (less compound effect), active = hit call of the paper (over 3 MAD below the median); conditions: 2.5 µM; library screen: screen1; EWS-FLI1 expression: low (doxycycline-induced shRNA knockdown); treatment time: 72 h
About 300 (9.4%) of roughly 3,200 compounds showed activity. Many of the other results were omitted from the sample, so actives are more common in it than they were.

// solved cases for cell viability (log2) follow
Can you look up cell viability (log2) on A673/TR/shEF for CC[C@H]1C(=O)OC[C@@H]1Cc1cccn1C ?
0.0953 (inactive)

Can you look up cell viability (log2) on A673/TR/shEF for C/C1=C\CC/C(C)=C/CC(C)(C)/C=C/C1 ?
0.0862 (inactive)

Can you look up cell viability (log2) on A673/TR/shEF for NC(Cc1ccc(F)cc1)C(=O)O (stereo not drawn) ?
0.0179 (inactive)

Can you look up cell viability (log2) on A673/TR/shEF for CCOC(=O)C1(O)Oc2cc(OC)cc(OC)c2C(=O)C1c1ccccc1 (stereo not drawn) ?
0.086 (inactive)

Can you look up cell viability (log2) on A673/TR/shEF for COCCOC(=O)C1=C(C)NC(=S)NC1c1ccccc1OC (stereo not drawn) ?
0.0651 (inactive)

Look up cell viability (log2) for the entries below, preserving their order.
1. CCC/C=C/C=C/C1CC(O)C(O)C(=O)C1C=O (stereo not drawn)
2. COc1ccc(/C=C/C(=O)O)cc1O
3. C=C1CCC(=O)C(C)CCC2C1CC2(C)C (stereo not drawn)
4. O=C(OCc1ccccc1)c1ccccc1

1: 0.105 (inactive); 2: 0.0415 (inactive); 3: -0.105 (inactive); 4: 0.112 (inactive)

Look up cell viability (log2) for the entries below, preserving their order.
1. COc1ccccc1CNC(=O)CN(c1ccc(Cl)cc1)S(C)(=O)=O
2. C=C1CCC2OC2(C)CCC2C1CC2(C)C (stereo not drawn)
3. CC12CCCC(O)(C1)C1CC(C)(C)C1CC2 (stereo not drawn)
4. C=C1c2cccc(O)c2C(O)=C2C(=O)[C@]3(O)C(O)=C(C(N)=O)C(=O)[C@@H](N(C)C)[C@@H]3[C@@H](O)[C@H]12

1: 0.0379 (inactive); 2: 0.0209 (inactive); 3: 0.0732 (inactive); 4: 0.152 (inactive)

###

system: A673/TR/shEF; assay: cell viability (LOESS-normalised, relative to median of negative controls) (log2 ratio); higher = more viable cells (less compound effect), active = hit call of the paper (over 3 MAD below the median); conditions: 2.5 µM; library screen: screen1; EWS-FLI1 expression: high (no doxycycline); treatment time: 72 h
The campaign covered roughly 3,200 compounds. About 300 (9.4%) showed activity. The list comes from a sample in which actives are over-represented; it also holds close analogues and randomly drawn compounds.
What cell viability (log2) was measured for each of the following?
Answers are plain numbers.

Can you look up cell viability (log2) on A673/TR/shEF for CC(C)c1cc(/C=C(\C#N)C(=O)NCCCc2ccccc2)cc(C(C)C)c1O ?
-0.147

Can you look up cell viability (log2) on A673/TR/shEF for Cc1ccc(CN2CCN(Cc3c[nH]c4ccccc34)CC2)cc1 ?
0.104

Can you look up cell viability (log2) on A673/TR/shEF for CC(=O)NCCCCCC(=O)O ?
0.0136

Can you look up cell viability (log2) on A673/TR/shEF for NCCCC(=O)O ?
0.21

Can you look up cell viability (log2) on A673/TR/shEF for C=CCNC(=O)c1ccc(CN(c2cccc(Cl)c2)S(C)(=O)=O)cc1 ?
0.107

Can you look up cell viability (log2) on A673/TR/shEF for NCCCCCC(=O)O ?
0.144

Look up cell viability (log2) for the entries below, preserving their order.
1. CSCCC(NC=O)C(=O)NC(C)C(=O)O (stereo not given)
2. O=C(O)CCCCCCCC(=O)O
3. COc1ccc(C2NC(=O)NC(C)=C2C(=O)Nc2ccccc2Cl)cc1OC (stereo not given)
4. CC1(O)/C=C\C=C(\CO)C2CC(C)(C)C2(O)CC1 (stereo not given)

1: 0.177; 2: 0.149; 3: 0.0736; 4: 0.128
